- Tested on: SN12C renal
- MEASUREMENT PROTOCOL: NCI-60 one-dose screen, 48 h (100 = growth as untreated, 0 = no growth, -100 = all killed)
- CONDITION CONTEXT: 10 µM unless noted
This is part of a sample that, as a whole, favours compounds with a hit. Of some 83,000 tested, about 20% had one in any assay.

{"columns": ["MOLECULE", "SYSTEM TESTED", "DISPLAY UNIT", "growth"],
 "data": [
  ["C/C=C(/C(=C/C)c1ccc(O)cc1)c1ccc(O)cc1", "SN12C renal", "%", 42.8],
  ["N#CSCC1CC(O)(c2ccccc2)C(c2ccccc2)C(c2ccc(Cl)cc2)O1 (stereo unspecified)", "SN12C renal", "%", -91.9],
  ["O=C(O)CNC(=O)C1(N2C(=O)c3ccccc3C2=O)CCCC1", "SN12C renal", "%", 99],
  ["O=c1c2ccccc2c2nccn2c2cc(Cl)ccc12", "SN12C renal", "%", 112],
  ["CC1C(C)N(C(=O)CCl)c2ccccc2N1C(=O)CCl (stereo unspecified)", "SN12C renal", "%", -26.6],
  ["Cc1nn(-c2ccccc2)cc1/C=C1\\SC(N2CCCCC2)=NC1=O", "SN12C renal", "%", 93]
]}

---

- Test system: OVCAR-8 ovarian
- MEASUREMENT PROTOCOL: NCI-60 one-dose screen, 48 h
- CONDITION CONTEXT: 10 µM unless noted
This is part of a sample that, as a whole, favours compounds with a hit. Of some 83,000 tested, about 20% had one in any assay. Active and inactive are the calls of the source. The calls were made as follows: active = growth percent below 10; inactive = the rest.
Classes used: T (active), F (inactive)

{"columns": ["COMPOUND", "SYSTEM TESTED", "GROUP"],
 "data": [
  ["O=C(Nc1ccccc1)c1cc(-n2cnc([N+](=O)[O-])c2)cc(-n2cnc([N+](=O)[O-])c2)n1", "OVCAR-8 ovarian", "F"],
  ["CCCCCCCCCCCCCCCCNC(=O)Nc1ccc2ccccc2c1", "OVCAR-8 ovarian", "F"],
  ["CCCCc1ccc(C(N)=O)nc1", "OVCAR-8 ovarian", "F"],
  ["COc1cc(/C=N/OC(=O)Nc2ccccc2)cc(OC)c1OC", "OVCAR-8 ovarian", "F"],
  ["CCSCC1CC(O)(c2ccccc2)C(c2ccccc2)C(c2ccc(Cl)cc2)O1 (stereo not given)", "OVCAR-8 ovarian", "T"],
  ["CCc1nn2c(-c3ccc(Cl)cc3C)c(-c3cc(OC)c(OC)c(OC)c3)nc2s1", "OVCAR-8 ovarian", "F"],
  ["CC(=O)OC1Oc2cc(C)c(C)cc2-c2oc(=O)c(-c3ccccc3)cc21 (stereo not given)", "OVCAR-8 ovarian", "F"],
  ["CC(=O)Nc1c(Cl)cc2c(c1Cl)Cc1cc([N+](=O)[O-])ccc1-2", "OVCAR-8 ovarian", "F"],
  ["CC(C)CC1NC(=O)C(CCCN)NC(=O)C(C(C)C)NC(=O)C2CCCN2C(=O)C(Cc2ccccc2)NC(=O)C(CC(C)C)NC(=O)C(CCCN)NC(=O)C(C(C)C)NC(=O)C2CCCN2C(=O)C(Cc2ccccc2)NC1=O (stereo not given)", "OVCAR-8 ovarian", "T"],
  ["N#Cc1c(NC(=O)c2ccco2)[n+]([O-])c2ccccc2[n+]1[O-]", "OVCAR-8 ovarian", "F"],
  ["c1cc[n+](Cc2ccnc3ccccc23)cc1", "OVCAR-8 ovarian", "F"],
  ["CC(=O)c1ccc(NS(=O)(=O)c2ccc([N+](=O)[O-])cc2)cc1", "OVCAR-8 ovarian", "F"],
  ["Nc1ccccc1-c1ccn[nH]1", "OVCAR-8 ovarian", "F"],
  ["CC[C@@H](C)/C=C(C)/C=C/C(O)=C1\\C(=O)N[C@@H](Cc2ccc(OC(=O)[C@@](OC)(c3ccccc3)C(F)(F)F)cc2)C1=O", "OVCAR-8 ovarian", "F"],
  ["O=C1OC(Oc2ccccc2)(c2ccccc2)c2ccccc21 (stereo not given)", "OVCAR-8 ovarian", "F"],
  ["Nc1ccc2c(c1Br)Cc1ccccc1-2", "OVCAR-8 ovarian", "F"],
  ["Cc1ccc(C2=NNC(c3sc(Cl)nc3Cl)C2)cc1 (stereo not given)", "OVCAR-8 ovarian", "F"],
  ["Clc1ccc2c(c1)C(Br)c1cc(Cl)cc(Cl)c1-2 (stereo not given)", "OVCAR-8 ovarian", "F"],
  ["COc1cccc2c1C(=O)c1c(O)c3c(c(O)c1C2=O)C[C@@](O)(C(C)=O)C[C@@H]3O[C@H]1C[C@H](N)[C@H](O)[C@H](C)O1", "OVCAR-8 ovarian", "T"],
  ["O=C(COc1cccc(/C=C2\\Oc3ccc4ccccc4c3C2=O)c1)c1ccc([N+](=O)[O-])cc1", "OVCAR-8 ovarian", "F"],
  ["CCCc1n(Cc2ccc3ccccc3c2)cc[n+]1Cc1ccc2ccccc2c1", "OVCAR-8 ovarian", "T"],
  ["Nc1ncnc2c1CN(Cc1ccccc1)CC2", "OVCAR-8 ovarian", "F"],
  ["O=C1C(=O)/C(=C/c2ccccc2)CCCCCC/C1=C/c1ccccc1", "OVCAR-8 ovarian", "F"],
  ["COc1cc2c(cc1OC)C(=O)/C(=C/c1cccc(OCC(=O)c3ccccc3)c1)C2", "OVCAR-8 ovarian", "F"],
  ["c1ccc(COc2ccc(Nc3ncnc4c3cnn4-c3ccccc3)cc2)cc1", "OVCAR-8 ovarian", "F"],
  ["O=C(CC(C(=O)c1ccccc1)N1CCN(Cc2ccccc2)CC1)c1ccccc1 (stereo not given)", "OVCAR-8 ovarian", "F"],
  ["CCOC(=O)CCC(=O)O[C@H]1[C@H](O[C@@H]2[C@@H](C)[C@H](O[C@H]3C[C@@](C)(OC)[C@@H](O)[C@H](C)O3)[C@@H](C)C(=O)O[C@H](CC)[C@@](C)(O)[C@H](O)[C@@H](C)C(=O)[C@H](C)C[C@@]2(C)O)O[C@H](C)C[C@@H]1N(C)C", "OVCAR-8 ovarian", "F"],
  ["O=CN1N=C(c2ccc(Nc3ccnc4cc(Cl)ccc34)cc2)CC1c1ccc(Cl)cc1 (stereo not given)", "OVCAR-8 ovarian", "F"],
  ["Fc1ccc(-c2nn3c(-c4cc(C(F)(F)F)cc(C(F)(F)F)c4)nnc3s2)cc1", "OVCAR-8 ovarian", "F"],
  ["CCCCCc1c(C)[nH]c(/C=C2\\N=C(c3ccc[nH]3)C=C2Oc2ccccc2)c1C", "OVCAR-8 ovarian", "T"]
]}
